# measured_target: Skp1-FBXW7 complex (human FBXW7 residues 263-707 with truncated Skp1) (UniProt P63208 1-163)
# Sequence (chain, as listed by the source, chain 1 of 2): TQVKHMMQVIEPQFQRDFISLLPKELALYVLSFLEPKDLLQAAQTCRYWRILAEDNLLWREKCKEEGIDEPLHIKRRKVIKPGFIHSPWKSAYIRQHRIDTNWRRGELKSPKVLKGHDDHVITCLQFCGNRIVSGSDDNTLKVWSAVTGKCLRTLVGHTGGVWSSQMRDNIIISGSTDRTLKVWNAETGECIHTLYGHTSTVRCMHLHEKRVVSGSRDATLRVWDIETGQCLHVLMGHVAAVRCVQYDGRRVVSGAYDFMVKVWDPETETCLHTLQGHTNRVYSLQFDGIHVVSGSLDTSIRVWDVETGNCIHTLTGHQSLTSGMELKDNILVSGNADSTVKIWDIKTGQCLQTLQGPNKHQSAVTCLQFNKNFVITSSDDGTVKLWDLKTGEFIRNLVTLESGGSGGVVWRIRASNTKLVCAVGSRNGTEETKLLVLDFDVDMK
# Sequence (P63208 whole entry, chain 2 of 2, the tested form may be a part): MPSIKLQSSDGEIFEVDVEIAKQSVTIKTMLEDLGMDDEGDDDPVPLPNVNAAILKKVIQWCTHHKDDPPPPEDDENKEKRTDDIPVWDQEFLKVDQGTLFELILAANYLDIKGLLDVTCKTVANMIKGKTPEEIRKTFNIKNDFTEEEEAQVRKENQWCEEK
# test_summary: fluorescence polarisation
observation_type: pKd
Give bare numbers, as −log10 of the molar value.

What does the record list as pKd for AKKAMLSEQNRASPLPSGLLTPPQSGKKQSS (other) [Cyclin E (test agent of the FP assay)] ?
5.70
